target: L1196M mutant ALK kinase (Homo sapiens, UniProt Q9UM73, L1196M); experiment: HTRF KinEASE-TK assay, inhibitory activity on L1196M mutant ALK kinase; settings: L1196M mutant ALK 1 ng/μl, substrate 1 μM, ATP 5 μM, 30° C. 35 minutes, read-out: Inhibition on ALK kinases (L1196M mutant), IC50
Sequence (Q9UM73 19-1620 L1196M): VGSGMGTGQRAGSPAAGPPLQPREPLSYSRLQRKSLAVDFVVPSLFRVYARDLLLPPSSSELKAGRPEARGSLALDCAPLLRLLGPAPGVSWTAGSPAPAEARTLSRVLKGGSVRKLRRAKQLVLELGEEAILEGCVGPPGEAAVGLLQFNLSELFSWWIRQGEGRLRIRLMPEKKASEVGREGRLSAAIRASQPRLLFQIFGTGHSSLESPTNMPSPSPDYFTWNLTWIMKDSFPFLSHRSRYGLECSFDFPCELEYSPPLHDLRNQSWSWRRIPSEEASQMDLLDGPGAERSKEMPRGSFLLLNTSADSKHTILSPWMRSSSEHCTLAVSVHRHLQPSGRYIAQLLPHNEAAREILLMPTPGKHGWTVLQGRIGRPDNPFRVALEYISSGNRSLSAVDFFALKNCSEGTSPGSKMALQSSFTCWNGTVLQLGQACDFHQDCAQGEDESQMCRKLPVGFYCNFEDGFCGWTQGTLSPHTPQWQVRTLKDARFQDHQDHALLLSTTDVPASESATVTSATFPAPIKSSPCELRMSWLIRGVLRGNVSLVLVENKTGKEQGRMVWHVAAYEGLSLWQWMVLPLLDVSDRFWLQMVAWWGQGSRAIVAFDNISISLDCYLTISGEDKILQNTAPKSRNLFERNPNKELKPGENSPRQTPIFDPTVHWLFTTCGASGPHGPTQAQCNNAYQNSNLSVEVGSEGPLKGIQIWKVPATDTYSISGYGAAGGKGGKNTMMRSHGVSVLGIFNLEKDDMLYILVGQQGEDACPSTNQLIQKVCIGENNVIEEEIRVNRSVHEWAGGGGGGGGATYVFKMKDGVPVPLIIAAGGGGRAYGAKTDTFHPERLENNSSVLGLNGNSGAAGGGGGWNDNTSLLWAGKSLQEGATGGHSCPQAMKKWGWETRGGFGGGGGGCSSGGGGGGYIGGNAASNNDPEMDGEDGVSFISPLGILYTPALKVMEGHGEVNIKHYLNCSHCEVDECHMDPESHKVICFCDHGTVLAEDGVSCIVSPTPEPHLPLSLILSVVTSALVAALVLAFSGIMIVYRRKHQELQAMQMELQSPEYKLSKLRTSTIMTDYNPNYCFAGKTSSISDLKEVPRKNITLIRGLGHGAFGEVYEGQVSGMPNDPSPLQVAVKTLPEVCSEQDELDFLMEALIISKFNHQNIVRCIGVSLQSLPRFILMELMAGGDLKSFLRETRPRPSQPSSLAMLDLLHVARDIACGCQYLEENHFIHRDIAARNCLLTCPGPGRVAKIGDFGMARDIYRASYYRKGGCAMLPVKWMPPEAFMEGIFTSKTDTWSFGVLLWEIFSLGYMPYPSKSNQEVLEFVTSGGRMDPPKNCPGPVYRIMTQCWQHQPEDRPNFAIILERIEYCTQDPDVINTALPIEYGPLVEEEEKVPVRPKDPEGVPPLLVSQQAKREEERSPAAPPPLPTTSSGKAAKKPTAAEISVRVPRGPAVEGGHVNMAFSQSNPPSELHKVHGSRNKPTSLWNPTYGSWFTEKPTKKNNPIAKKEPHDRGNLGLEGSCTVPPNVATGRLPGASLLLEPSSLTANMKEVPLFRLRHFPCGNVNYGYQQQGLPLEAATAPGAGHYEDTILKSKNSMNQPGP
pIC50: −log10 of the molar value.
Binary classification by pIC50, with 8 as an inclusive lower bound for criterion met; all other cases are criterion not met.

Illustrative cases are given below, each with its answer.
compound	label_value
Cc1cc(Nc2ncc(Cl)c(Nc3cn(C)nc3S(=O)(=O)C(C)C)n2)c(OC2CC2)cc1C1CCC(NS(C)(=O)=O)CC1 (stereo not shown) [Final product 205]	criterion not met
CC(C)S(=O)(=O)c1nn(C2CC2)cc1Nc1nc(Nc2ccc(C3CCN(C)CC3)cc2OC2CC2)ncc1Cl [Final product 42]	criterion met
CC(C)S(=O)(=O)c1nn(C2CC2)cc1Nc1nc(Nc2cc(F)c(C3CCNCC3)cc2OC2CC2)ncc1Cl [Final product 21]	criterion met
Cc1cc(Nc2ncc(Cl)c(Nc3cn(C)nc3S(=O)(=O)C(C)C)n2)c(OC2CC2)cc1C1CCN(C(=O)C(F)(F)F)CC1 [Final product 161]	criterion not met
Cc1cc(Nc2ncc(Cl)c(Nc3cn(C)nc3S(=O)(=O)C(C)C)n2)c(OC2CC2)cc1C1CCN(C)C1 (stereo not shown) [Final product 53]	criterion met
CNC(=O)CN1CCC(c2cc(OC)c(Nc3ncc(Cl)c(Nc4cc(C)n[nH]4)n3)cc2C)CC1 [Final product 216, reference compound]	criterion not met
Cc1cc(Nc2ncc(Cl)c(Nc3cn(C4CC4)nc3S(=O)(=O)C(C)C)n2)c(OC(C)C)cc1C1CCN(C)CC1 [Final product 81]	criterion not met

Lab note: next compound to report on.
Given CC(C)S(=O)(=O)c1nn(C)cc1Nc1nc(Nc2ccc(C3CCN(C)C3)cc2OC2CC2)ncc1Cl (stereo not shown) [Final product 41] , state whether its pIC50 is at least 8.
criterion met

###

target: L1196M mutant ALK kinase (Homo sapiens, UniProt Q9UM73, L1196M); construct: purchased Sino-US Crown Bioscience, Inc. batch number ALKm_20110923; test: HTRF KinEASE-TK assay, inhibitory activity on L1196M mutant ALK kinase; format: biochemical; conditions: L1196M mutant ALK 1 ng/μl, substrate 1 μM, ATP 5 μM, 30° C. 35 minutes, read-out: Inhibition on ALK kinases (L1196M mutant), IC50
pIC50: −log10 of the molar value.
Lab note: compare pIC50 against 8. Equal or greater, write criterion met. Smaller, write criterion not met.

Look over these answered cases.
compound	label_value
Cc1cc(Nc2ncc(Cl)c(Nc3cn(C)nc3S(=O)(=O)C(C)C)n2)c(OC2CC2)cc1C1CN(S(C)(=O)=O)C1 [Final product 170]	criterion not met
Cc1cc(Nc2ncc(Cl)c(Nc3cn(C)nc3S(=O)(=O)C(C)C)n2)c(OC2CC2)cc1C1=CCNCC1 [Final product 25]	criterion met
Cc1cc(Nc2ncc(Cl)c(Nc3cn(C)nc3S(=O)(=O)C(C)C)n2)c(OC2CC2)cc1C1CN(C)C1 [Final product 54]	criterion met
Cc1cc(Nc2ncc(Cl)c(Nc3cn(C)nc3S(=O)(=O)CC(C)C)n2)c(OC2CC2)cc1C1CN(S(C)(=O)=O)C1 [Final product 171]	criterion not met
CC(C)S(=O)(=O)c1nn(C)cc1Nc1nc(Nc2ccc(C3CCN(C)CC3)cc2OC(F)(F)F)ncc1Cl [Final product 30]	criterion not met

Entry Cc1cc(Nc2ncc(Cl)c(Nc3cn(C)nc3S(=O)(=O)C(C)C)n2)c(OC2CC2)cc1C1CCOCC1 [Final product 107] : is its pIC50 no less than 8?
criterion not met

Kindly determine if pIC50 recorded for Cc1cc(Nc2ncc(Cl)c(Nc3cn(C)nc3S(=O)(=O)C(C)C)n2)c(C(C)C)cc1C1CCN(C)CC1 [Final product 33] is above or exactly 8.
criterion not met

Confirm if pIC50 reported for the compound CC(C)S(=O)(=O)c1nn(C2CC2)cc1Nc1nc(Nc2ccc(C3CCN(C)CC3)cc2OC(F)(F)F)ncc1Cl [Final product 38] is 8 or above.
criterion not met

Is the recorded value of pIC50 equal to or greater than 8 for this compound? Cc1cc(Nc2nc(Nc3cc(C)c(C4CCN(C(C)C)CC4)cc3C)ncc2Cl)n[nH]1 [Final product 213, reference compound]
criterion not met

// inclusive: pIC50 at least 8? input: CC(C)S(=O)(=O)c1nn(C)cc1Nc1nc(Nc2ccc(C3CCNC3)cc2OC2CC2)ncc1Cl (stereo not drawn) [Final product 15]
criterion met

Determine whether this compound has pIC50 no lower than 8: COCC1CC(c2cc(OC3CC3)c(Nc3ncc(Cl)c(Nc4cn(C)nc4S(=O)(=O)C(C)C)n3)cc2C)CCN1C (stereo not drawn) [Final product 77]
criterion met

###

Molecular target: L1196M mutant ALK kinase (Homo sapiens, UniProt Q9UM73, L1196M)
Experiment: HTRF KinEASE-TK assay, inhibitory activity on L1196M mutant ALK kinase
Details: L1196M mutant ALK 1 ng/μl, substrate 1 μM, ATP 5 μM, 30° C. 35 minutes, read-out: Inhibition on ALK kinases (L1196M mutant), IC50
Experimental: 2. Inhibitory Activities of the Compounds of the Present Invention on L1196M Mutant ALK Kinases ? experimental method ? […] ? instrument ? Envision 2104 plate reader from PerKinElmer company. […] ? experimental condition ? […] The data was read from PerkinElmer EnVision plate reader ([…]), the 665/615 ratio was calculated, and the data was analyzed. […] ? data processing ? IC50 of compounds was calculated by using XLfit program in Excel.
Entries annotated with measured IC50
Report only the number, with the unit nM understood.

Reference set (2 entries):
compound	unit_symbol	IC50
Cc1cc(Nc2ncc(Cl)c(Nc3cn(C)nc3S(=O)(=O)C(C)C)n2)c(OC(C)C)cc1C1CN(S(C)(=O)=O)C1	nM	25
CC(C)CS(=O)(=O)c1nn(C)cc1Nc1nc(Nc2ccc(C3CCNC3)cc2OC2CC2)ncc1Cl (stereo not drawn)	nM	4

Lab note: next compound to report on.
The value of IC50 measured for the compound Cc1cc(Nc2nc(Nc3cc(C)c(C4CCN(S(C)(=O)=O)CC4)cc3C)ncc2Cl)n[nH]1 [Final product 217, reference compound] turned out to be 69

###

biological target: Wild Type ALK kinase (Homo sapiens)
Sequence (Q9UM73 19-1620): as the sequence (Q9UM73 19-1620 L1196M) above, with M1178L counted along it
Field: label. Allowed values: satisfied (IC50 < 6 nM) or not satisfied (IC50 >= 6 nM).

Worked examples follow.
compound	label_value
CC(C)S(=O)(=O)c1nn(C2CC2)cc1Nc1nc(Nc2cc(Cl)c(C3CCN(C)CC3)cc2OC2CC2)ncc1Cl [Final product 48]	satisfied
Cc1cc(Nc2nc(Nc3cc(C)c(C4CCCNC4)cc3C)ncc2Cl)n[nH]1 (stereo not shown) [Final product 214, reference compound]	not satisfied

Report whether reported IC50 is lower than 6 nM (strictly) for Cc1cc(Nc2ncc(Cl)c(Nc3cn(C)nc3S(=O)(=O)C(C)C)n2)c(OC2CC2)cc1C1CCN(S(C)(=O)=O)CC1 [Final product 167]
not satisfied

I wonder whether Cc1cc(Nc2ncc(Cl)c(Nc3cn(C)nc3S(=O)(=O)C(C)C)n2)c(OC(C)C)cc1C1CN(S(C)(=O)=O)C1 [Final product 168] has IC50 below 6 nM. Can you tell?
not satisfied

Please state whether IC50 is below 6 nM for Cc1cc(Nc2ncc(Cl)c(Nc3cn(C)nc3S(=O)(=O)CC(C)C)n2)c(OC2CC2)cc1C1CN(S(C)(=O)=O)C1 [Final product 171]
not satisfied

Just wondering, is IC50 of Cc1cc(Nc2ncc(Cl)c(Nc3cn(C4CC4)nc3S(=O)(=O)C(C)C)n2)c(OC(C)C)cc1C1CCN(C)CC1 [Final product 81] below 6 nM?
not satisfied

Answer whether the compound CNC(=O)CN1CCC(c2cc(OC)c(Nc3ncc(Cl)c(Nc4cc(C)n[nH]4)n3)cc2C)CC1 [Final product 216, reference compound] has IC50 strictly less than 6 nM
not satisfied

Hi there! Is IC50 for CC(C)S(=O)(=O)c1nn(C2CC2)cc1Nc1nc(Nc2cc(Cl)c(C3CCNCC3)cc2OC2CC2)ncc1Cl [Final product 23] below 6 nM, do you know?
satisfied

Confirm or reject: IC50 of Cc1cc(Nc2ncc(Cl)c(Nc3cn(C)nc3S(=O)(=O)C(C)C)n2)c(OC(C)C)cc1[C@H]1CC[C@H](NC(C)C)CC1 [Final product 188] lies strictly below 6 nM
satisfied

###

Below is a list of entries, each paired with its recorded IC50 value.
target: L1196M mutant ALK kinase (Homo sapiens, UniProt Q9UM73, L1196M); construct: purchased Sino-US Crown Bioscience, Inc. batch number ALKm_20110923; assay: HTRF KinEASE-TK assay, inhibitory activity on L1196M mutant ALK kinase; format: biochemical; settings: L1196M mutant ALK 1 ng/μl, substrate 1 μM, ATP 5 μM, 30° C. 35 minutes, read-out: Inhibition on ALK kinases (L1196M mutant), IC50
A number alone suffices; assume nM.

Entry under test: CCC(C)S(=O)(=O)c1nn(C)cc1Nc1nc(Nc2cc(C)c(C3CCNCC3)cc2OC(C)C)ncc1Cl (centres unmarked) . Its IC50 was 12

Lab book: IC50 of COCCN1CCC(c2cc(OC3CC3)c(Nc3ncc(Cl)c(Nc4cn(C)nc4S(=O)(=O)C(C)C)n3)cc2C)CC1 noted as 7

Memo: CCN(CC)[C@H]1CC[C@@H](c2cc(OC3CC3)c(Nc3ncc(Cl)c(Nc4cn(C)nc4S(=O)(=O)C(C)C)n3)cc2C)CC1 , reported IC50: 17

GET /value?item= Cc1cc(Nc2ncc(Cl)c(Nc3cn(C)nc3S(=O)(=O)C(C)C)n2)c(OC2CC2)cc1C1CCN(C2CC2)CC1 &field=IC50 returns 11

IC50 reported for this molecule Cc1cc(Nc2ncc(Cl)c(Nc3cn(C)nc3S(=O)(=O)C(C)C)n2)c(C(F)(F)F)cc1C1CCNCC1 : 39
